Assay: Cytotoxicity against human 1205 Lu cells after 72 hrs by MTS assay
Format: functional, cell-based
Here the recorded IC50 is given for each entry.

{"smiles_notation": "N=C(N)SCCN1C(=O)c2cccc3cc([N+](=O)[O-])cc(c23)C1=O", "units_text": "µM", "IC50": 16.4}
{"smiles_notation": "O=C1c2cccc3cccc(c23)C(=O)N1CCCCN=C=S", "units_text": "µM", "IC50": 3.03}
{"smiles_notation": "N=C(N)SCCN1C(=O)c2cccc3cccc(c23)C1=O", "units_text": "µM", "IC50": 18.7}
{"smiles_notation": "O=C1c2cccc3cccc(c23)C(=O)N1CCN=C=S", "units_text": "µM", "IC50": 6.04}
